# SYSTEM: Serine/threonine-protein kinase pim-2 (Homo sapiens)
# ASSAY: Inhibition of human full length Pim-2 using RSRHSSYPAGT as substrate assessed as residual activity at 10 uM after 30 mins in presence of [gamma-33P]ATP; values are per cent of control
Can you tell me residual activity for the items I'm about to list?
# output: bare number, implied unit %

Which residual activity is reported for this compound? CCCc1c(C(=O)OC)[nH]c2c(N)cc3cn[nH]c3c12
78

I have this compound here, Nc1cc2cn[nH]c2c2c(-c3ccccc3)c[nH]c12 , and I need its recorded residual activity.
92

// lookup residual activity for Nc1cc2cn[nH]c2c2cc[nH]c12
104

What residual activity value was documented for this compound, CCc1[nH]c2c(N)cc3cn[nH]c3c2c1-c1ccccc1 ?
75
